Tested on: Toxoplasma gondii
assayName: AntiToxoplasma gondii activity data 2-day killing assay: inhibition at 10 uM (%) Experiment E
Assay type: functional
reportedMetric: Inhibition (%)

compound: CC(C)(C)OC(=O)N1CCC(Cn2nc(-c3cnc4ccccc4c3)c3c(N)ncnc32)CC1
reportedMetric: Inhibition
experimentalResult: 0
//
compound: CC(C)n1nc(-c2cc3c(Cl)cccc3[nH]2)c2c(N)ncnc21
reportedMetric: Inhibition
experimentalResult: 99.5
//
compound: CC(Oc1cccc(Cl)c1)C(=O)Nc1ccc2oc(-c3ccncc3)nc2c1 (stereo unspecified)
reportedMetric: Inhibition
experimentalResult: 81.6
//
compound: CC(C(=O)Nc1ccc2oc(-c3ccncc3)nc2c1)c1ccccc1 (stereo unspecified)
reportedMetric: Inhibition
experimentalResult: 1.05
//
compound: Nc1nc(N)c2c3c(sc2n1)CN(Cc1ccccc1)CC3
reportedMetric: Inhibition
experimentalResult: 81.6
//
compound: CC(C)(C)n1nc(Cc2ccc(F)c(Cl)c2)c2c(N)ncnc21
reportedMetric: Inhibition
experimentalResult: 95.5

---

Test system: Plasmodium falciparum
assayName: Antimalarial activity: Asexual Blood Stage Plasmodium falciparum 3D7 IC50 (uM)
Type: functional, organism-based
pIC50: −log10 of the molar value.
Item-by-item account of pIC50

molecule: O=C(Nc1ccc(N2CCNCC2)cc1)c1ccn2ncc(-c3cccc(Cl)c3)c2n1
studyTarget: Plasmodium falciparum
pIC50: 6.11
--
molecule: Cc1cc(C)n2nc(C(=O)Nc3cc(C(F)(F)F)ccc3N3CCOCC3)nc2n1
studyTarget: Plasmodium falciparum
pIC50: 6.66
--
molecule: COc1ccc(-c2cnc3ccc(N4CCCC4)nn23)cc1OC
studyTarget: Plasmodium falciparum
pIC50: 6.15
--
molecule: CC(C)C(NC(=O)Cc1cccc2ccccc12)C(=O)Nc1cccc(C#N)c1 (stereo not given)
studyTarget: Plasmodium falciparum
pIC50: 6.02
--
molecule: COc1ccc(Cl)cc1NC(=O)CN(C)C(=O)c1cnn(-c2ccccc2)n1
studyTarget: Plasmodium falciparum
pIC50: 6.62
--
molecule: O=C(NCCN1CCCC1)c1cc(NCCN2CCOCC2)nc2ccc(Cl)cc12
studyTarget: Plasmodium falciparum
pIC50: 7.00
--
molecule: O=C(Nc1ccc(N2CCNCC2)nc1)c1oc(-c2ccccc2)nc1C(F)(F)F
studyTarget: Plasmodium falciparum
pIC50: 5.91
--
molecule: Cc1cc(NC(=O)c2ccc(S(=O)(=O)N(Cc3ccccc3)C(C)C)cc2)no1
studyTarget: Plasmodium falciparum
pIC50: 6.01
--
molecule: CNC(=O)C1Cc2c([nH]c3cc(Cl)ccc23)C2(CCN(CCc3ccccc3)CC2)N1 (stereo not given)
studyTarget: Plasmodium falciparum
pIC50: 6.07
--
molecule: COc1ccc(-c2cncc3ccc(C(=O)NCCCn4ccnc4)nc23)cc1
studyTarget: Plasmodium falciparum
pIC50: 5.97

---

Tested on: Mycobacterium tuberculosis
assayName: AntiMycobacterium tuberculosis activity 2-week GAST/Fe MIC (uM)
Format: functional
measurementSetup: 336 h
Item-by-item account of MIC

compound: O=C(Nc1nnc(-c2ccc(Cl)cc2)o1)c1cccc(C(F)(F)F)c1
resultModifier: =
MIC [µM]: 0.07
//
compound: O=C(CCC1CCCCC1)Nc1cccc(-c2nnc(-c3ccco3)o2)c1
resultModifier: =
MIC [µM]: 1.2
//
compound: CC(C)(C)c1cnc(NC(=O)c2ccccc2O)s1
resultModifier: =
MIC [µM]: 25
//
compound: CCCCOC(=O)Nc1cc2nc(C3CCCCC3)[nH]c2cc1N1CCCC1
resultModifier: =
MIC [µM]: 0.15
//
compound: c1ccc(C[C@@H]2CN(c3nccc(Oc4ccc(-n5ccnc5)cc4)n3)CCN2)cc1
resultModifier: =
MIC [µM]: 37
//
compound: Cc1ccc2[nH]c(C3CCCNC3)c(-c3ccncc3)c2c1 (stereo not given)
resultModifier: =
MIC [µM]: 2.3
//
compound: c1cncc(NCc2ccc(-c3cc4ccncc4cc3OC3CCNCC3)s2)c1
resultModifier: =
MIC [µM]: 4.7
//
compound: N#Cc1ccc(-c2ccc(OCC(N)=O)cc2)cc1
resultModifier: =
MIC [µM]: 4.7
//
compound: COc1cccc(OCC(=O)c2ccc(Br)cc2)c1
resultModifier: =
MIC [µM]: 9.4
//
compound: CC1=NN(c2nc3ccccc3s2)C(=O)C1Cc1cccc2ccccc12 (stereo not given)
resultModifier: =
MIC [µM]: 3.13
//
compound: CC(=O)NCC1CN(c2ccc(-c3ccc(CNCc4cn[nH]n4)cc3)c(F)c2)C(=O)O1 (stereo not given)
resultModifier: =
MIC [µM]: 0.15
//
compound: O=C(Nc1nc(-c2ccccn2)cs1)c1cncn1-c1ccccc1
resultModifier: =
MIC [µM]: 3.13
//
compound: CCc1nc2ccccc2n1CC(O)COc1cc(C)ccc1Cl (stereo not given)
resultModifier: =
MIC [µM]: 12.5
//
compound: Cc1cc(C)cc(COc2ccc3c(C)c(CCC(=O)O)c(=O)oc3c2C)c1
resultModifier: =
MIC [µM]: 9.4
//
compound: Nc1nc2cc(-c3cncc(Oc4ccc(F)cc4)c3)ccc2[nH]1
resultModifier: =
MIC [µM]: 6.25
//
compound: N#Cc1nc(-c2ccccc2)oc1S(=O)(=O)c1ccc(Cl)cc1
resultModifier: =
MIC [µM]: 0.6
//
compound: Nc1c2c(nc3sc4c(c13)CCCC4)CCCC2
resultModifier: =
MIC [µM]: 2.3
//
compound: Cc1ccc(NC(=O)CC2COc3ccccc3O2)cc1Cl (stereo not given)
resultModifier: =
MIC [µM]: 12.5
//
compound: Cc1nc2ccccn2c1C(=O)NCc1ccc(Cl)cc1
resultModifier: =
MIC [µM]: 0.07
//
compound: CCCc1ccc(S(=O)(=O)Nc2ccc(CN3CCN(CC4CC4)CC3)cc2)cc1
resultModifier: =
MIC [µM]: 12.5
//
compound: COc1cc(CN2CCC3(C=Cc4ccccc43)CC2)cc2c1OCO2
resultModifier: =
MIC [µM]: 0.78
//
compound: CCOc1ccc(-c2nc(CNCCc3ccc(F)cc3)cs2)cc1
resultModifier: =
MIC [µM]: 12.5
//
compound: O=C(Nc1ccc(C(F)(F)F)c(C(F)(F)F)c1)c1cc(Cl)ccc1O
resultModifier: =
MIC [µM]: 2.3
//
compound: CCOC(=O)NC(=O)c1ccsc1NC(=O)c1nc2ccccc2s1
resultModifier: <
MIC [µM]: 0.02
//
compound: COc1ccc2nccc(NC(=O)C3CCN(CCc4ccc(Cl)cc4)CC3)c2n1
resultModifier: =
MIC [µM]: 0.39
//
compound: CC(=O)N1CCc2cc3nc(C)cc(C)c3cc21
resultModifier: =
MIC [µM]: 0.39
//
compound: CCc1nc2ccc(Cl)cn2c1C(=O)NCc1ccc(N2CCC(c3ccc(OC(F)(F)F)cc3)CC2)cc1
resultModifier: <
MIC [µM]: 0.02
//
compound: O=C(c1[nH]nc2c1CCCC2)N1CCN(Cc2ccc3c(c2)OCO3)CC1
resultModifier: =
MIC [µM]: 0.78
//
compound: O=C(N[C@H](Cc1ccccc1)C(=O)Nc1ccccc1N1CCOCC1)c1cccs1
resultModifier: =
MIC [µM]: 0.15
//
compound: O=C1O[C@@H](CO)CN1c1cc(F)c(C2=CCN(Cc3ccccc3)CC2)c(F)c1
resultModifier: =
MIC [µM]: 9.4
//
compound: Cc1ccccc1CN1CCC(O)(c2ccc(Cl)c(C(F)(F)F)c2)CC1
resultModifier: =
MIC [µM]: 0.3
//
compound: CCCCS(=O)(=O)Nc1ccc2cnn(C)c2c1
resultModifier: =
MIC [µM]: 0.6
//
compound: CC(C)(C(=O)Nc1ccc(F)cc1)n1cc(-c2ccccc2F)cn1
resultModifier: =
MIC [µM]: 2.3
//
compound: CCC(Sc1nc2ccccc2o1)C(=O)Nc1nccs1 (stereo not given)
resultModifier: =
MIC [µM]: 37
//
compound: CCOc1ccc(OCC(=O)Nc2cc(C)cc(C)c2)cc1
resultModifier: =
MIC [µM]: 4.7
//
compound: CCOC(=O)c1cc(-c2csc(Nc3c(C)cc(C)cc3C)n2)on1
resultModifier: =
MIC [µM]: 12.5
//
compound: O=C(C1CCN(c2nnc(-n3cccc3)s2)CC1)N1CCC(Cc2ccccc2)CC1
resultModifier: =
MIC [µM]: 0.02
//
compound: CC(C)=CCC/C(C)=C\CNCCNC1C2CC3CC(C2)CC1C3 (stereo not given)
resultModifier: =
MIC [µM]: 0.78
//
compound: CCCn1c(CNc2ccccc2O)nc2ccccc21
resultModifier: =
MIC [µM]: 1.56
//
compound: Cn1c(=O)c2c(S(C)(=O)=O)snc2n(C)c1=O
resultModifier: =
MIC [µM]: 6.25
//
compound: O=C(c1cc2ccccc2o1)N1CCN(Cc2ccc3c(c2)OCO3)CC1
resultModifier: =
MIC [µM]: 0.2
//
compound: COc1cc(C(F)(F)F)nc2ccc(C)c(N)c12
resultModifier: =
MIC [µM]: 0.6
//
compound: CCCCc1ccc(C(=O)Nc2nccc3ccccc23)nc1
resultModifier: =
MIC [µM]: 1.56
//
compound: O=C1O[C@@H](COc2ccon2)CN1c1cc(F)c(C2=CCN(Cc3ccccc3)CC2)c(F)c1
resultModifier: =
MIC [µM]: 1.56
//
compound: O=[N+]([O-])c1cn2c(n1)OC[C@@H](OCc1ccc(OC(F)(F)F)cc1)C2
resultModifier: =
MIC [µM]: 0.15
